Reference source for all entries: patent US20260242478A1

Measured Octet signal, listed per entry for reference.
subjectOfTest: Ab-15
Sequence (heavy, as listed by the source, chain 1 of 2): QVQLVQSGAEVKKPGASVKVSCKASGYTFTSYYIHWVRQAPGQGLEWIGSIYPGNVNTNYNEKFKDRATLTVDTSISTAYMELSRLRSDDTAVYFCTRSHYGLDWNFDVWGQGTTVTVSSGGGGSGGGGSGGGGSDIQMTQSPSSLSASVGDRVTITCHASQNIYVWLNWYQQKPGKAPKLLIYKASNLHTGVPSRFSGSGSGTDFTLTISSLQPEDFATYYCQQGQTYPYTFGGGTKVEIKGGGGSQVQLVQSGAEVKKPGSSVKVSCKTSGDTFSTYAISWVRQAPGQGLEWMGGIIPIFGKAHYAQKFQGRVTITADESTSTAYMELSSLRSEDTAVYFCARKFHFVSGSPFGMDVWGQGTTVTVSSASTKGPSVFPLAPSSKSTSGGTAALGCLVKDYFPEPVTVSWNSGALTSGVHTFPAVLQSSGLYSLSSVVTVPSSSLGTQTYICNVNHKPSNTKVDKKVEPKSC
Sequence (light, as listed by the source, chain 2 of 2): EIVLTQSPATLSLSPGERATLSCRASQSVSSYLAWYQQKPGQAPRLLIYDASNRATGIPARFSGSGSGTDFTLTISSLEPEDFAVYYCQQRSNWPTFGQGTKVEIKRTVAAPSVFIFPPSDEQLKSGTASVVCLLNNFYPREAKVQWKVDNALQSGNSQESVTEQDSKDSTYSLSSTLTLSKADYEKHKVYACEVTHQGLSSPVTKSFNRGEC
method: BLI (Octet): sensor loaded with 200 nM biotinylated peptide, 100 nM Ab-15;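 note: binding association and dissociation tracked in real time, fitted to a 1:1 binding model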
Where no end group is shown, it is not given here.
measuredEndpoint: Octet signal

binder="FDWCPRDLWVHCFA (cysteine pairing not given here; also: biotinylated, site not given here, CD28 peptide mask) [Peptide-63]" measuredendpoint="Octet signal" observedvalue=1.01
binder="KDWCPRDLWVHCFA (cysteine pairing not given here; also: biotinylated, site not given here, CD28 peptide mask) [Peptide-62]" measuredendpoint="Octet signal" observedvalue=1.13
binder="PDWCPRDLWVHCFA (cysteine pairing not given here; also: biotinylated, site not given here, CD28 peptide mask) [Peptide-64]" measuredendpoint="Octet signal" observedvalue=0.328
binder="DDWCPRDLWVHCFA (cysteine pairing not given here; also: biotinylated, site not given here, CD28 peptide mask) [Peptide-55]" measuredendpoint="Octet signal" observedvalue=0.461
binder="HDWCPRDLWVHCFA (cysteine pairing not given here; also: biotinylated, site not given here, CD28 peptide mask) [Peptide-59]" measuredendpoint="Octet signal" observedvalue=0.737
binder="NDWCPRDLWVHCFA (cysteine pairing not given here; also: biotinylated, site not given here, CD28 peptide mask) [Peptide-54]" measuredendpoint="Octet signal" observedvalue=0.434
binder="SDWCPRDLWVHCFA (cysteine pairing not given here; also: biotinylated, site not given here, CD28 peptide mask) [Peptide-65]" measuredendpoint="Octet signal" observedvalue=0.551
binder="MDWCPRDLWVHCFA (cysteine pairing not given here; also: biotinylated, site not given here, CD28 peptide mask) [Peptide-41]" measuredendpoint="Octet signal" observedvalue=2.03
binder="TDWCPRDLWVHCFA (cysteine pairing not given here; also: biotinylated, site not given here, CD28 peptide mask) [Peptide-66]" measuredendpoint="Octet signal" observedvalue=1.34
